Documented GI50 across a set of compounds
# Test system: U251 CNS

Previously resolved entries follow.
compound=COc1cc([N+](=O)[O-])c2ncccc2c1O meas_value="3.2 µM"
compound=ClCc1ccc(Cn2cnc3ncnc(Cl)c32)cc1 meas_value="1.09 µM"
compound=C/C(=N\n1c(N)c(C#N)c(-c2ccc(Cl)cc2)c(C#N)c1=O)c1cccnc1 meas_value="> 100 µM"
compound=COc1cc(Nc2ncc(-c3ccccc3)o2)cc(OC)c1OC meas_value="4.35 µM"
compound=COc1cc(C(=O)c2c(-c3ccccc3)oc3ccccc23)cc(OC)c1O meas_value="3.21 µM"
compound="NC(=NC1C2CC3CC(C2)CC1C3)Nc1ccc(I)cc1 (stereo unspecified)" meas_value="3.42 µM"

GET /values?readout=GI50&system=U251 CNS&item= COCCn1cc(-c2csc(-c3c[nH]c4ccc(F)cc34)n2)c2cccnc21 5.14 µM

GET /values?readout=GI50&system=U251 CNS&item= NC(=O)c1ccc(NC(=O)c2oc3ccccc3c2-c2cnn(-c3ccccc3)c2)cc1 5.42 µM

GET /values?readout=GI50&system=U251 CNS&item= Cn1cc(/C=C2\C(=O)Nc3cccnc32)c2ccccc21 > 25 µM

GET /values?readout=GI50&system=U251 CNS&item= CN(C)c1ccc(/C=N/Nc2ccc(-c3nc4ccccc4[nH]3)cc2)cc1 6.3 µM

GET /values?readout=GI50&system=U251 CNS&item= CC(Cl)CC(=O)Nc1ccc2c(c1)oc(=O)c1cc(NC(=O)CC(C)Cl)ccc12 (stereo unspecified) 11.1 µM

* * *

# System: NCI-H226 lung
# procedure details: NCI tumour cell line growth inhibition, 48 h; in the data active = GI50 below about 0.43 µM; inactive = the rest
Allowed answers: active, inactive

The examples below pair each entry with its known result.
compound=NC(=O)c1ccc(NC(=O)c2oc3ccccc3c2-c2cnn(-c3ccccc3)c2)cc1 tgt="NCI-H226 lung" assigned_class=inactive
compound="COc1ccccc1OCC(O)CO (stereo unspecified)" tgt="NCI-H226 lung" assigned_class=inactive
compound=CCNC1=CC(=O)c2ncccc2C1=O tgt="NCI-H226 lung" assigned_class=inactive
compound=ClCc1ccc(Cn2cnc3ncnc(Cl)c32)cc1 tgt="NCI-H226 lung" assigned_class=inactive
compound=CC(C)=CCC[C@](C)(O)[C@H]1CC[C@]2(C)[C@@H]1CC[C@@H]1[C@@]3(C)CC[C@H](OC(=O)CCC(=O)O)C(C)(C)[C@@H]3CC[C@]12C tgt="NCI-H226 lung" assigned_class=inactive
compound=Cc1ccc(Nc2ccnc(Nc3cccc(C(N)=O)c3)n2)cc1O tgt="NCI-H226 lung" assigned_class=inactive

Would you mind telling me which call this test gave COCCOCCOCCOCCOc1ccc2c(c1)C(=O)c1nc3ncccc3c(=O)n1-2 ? inactive

Would you mind telling me which call this test gave Cc1cc(I)cc(CN(C)CCCCN2CCCC2)c1O ? inactive

Would you mind telling me which call this test gave COCCOC(=O)CCn1cc(F)c(=O)[nH]c1=O ? inactive

Would you mind telling me which call this test gave O=C(O)C(O)C(O)C1[O][Sb][O]C1CO (stereo unspecified) ? inactive

Would you mind telling me which call this test gave Nc1ncnc2c(C3OC(CO)C(O)C3O)c[nH]c12 (stereo unspecified) ? active

Would you mind telling me which call this test gave O=C(O)CCN1C(=O)/C(=C/C(Cl)=C/c2ccccc2)SC1=S ? inactive

Would you mind telling me which call this test gave COc1cc(SC)ccc1C(=O)N1CCCC(C)C1 (stereo unspecified) ? inactive

Would you mind telling me which call this test gave COc1cc([N+](=O)[O-])c2ncccc2c1O ? inactive

Would you mind telling me which call this test gave CC(Cl)CC(=O)Nc1ccc2c(c1)oc(=O)c1cc(NC(=O)CC(C)Cl)ccc12 (stereo unspecified) ? inactive

Would you mind telling me which call this test gave O=C(Nc1ccc(-c2nc3ccc(NC(=O)c4ccc(Cl)cc4)cc3[nH]2)cc1)c1ccc(Cl)cc1 ? inactive
